Measured CC50 by item
Test: Cytotoxicity against human RD cells
Format: toxicity, cell-based

COMPOUND | CC50
CCOP(=O)(OCC)C(Nc1ccc(F)cc1)c1cc(Cn2cc(Cn3c(=O)cc(C)c4cc(Br)ccc43)nn2)ccc1O (stereo unspecified) | > 100 µM
CCOP(=O)(OCC)C(Nc1ccccc1OC)c1cc(Cn2cc(Cn3c(=O)cc(C)c4cc(Br)ccc43)nn2)ccc1O (stereo unspecified) | > 33.3 µM
CCOP(=O)(OCC)C(Nc1ccccc1)c1cc(Cn2cc(Cn3c(=O)cc(C)c4ccccc43)nn2)ccc1O (stereo unspecified) | > 100 µM
Cc1cc(=O)n(Cc2cn(Cc3ccc(O)c(C=O)c3)nn2)c2ccccc12 | 27.1 µM
CCOP(=O)(OCC)C(Nc1ccc(I)cc1)c1cc(Cn2cc(Cn3c(=O)cc(C)c4cc(F)ccc43)nn2)ccc1O (stereo unspecified) | > 100 µM
CCOP(=O)(OCC)C(Nc1ccccc1)c1cc(Cn2cc(Cn3c(=O)cc(C)c4cc(F)ccc43)nn2)ccc1O (stereo unspecified) | > 100 µM
